Target: Rat FAAH (Rattus norvegicus, UniProt P97612)
Sequence (P97612 whole entry): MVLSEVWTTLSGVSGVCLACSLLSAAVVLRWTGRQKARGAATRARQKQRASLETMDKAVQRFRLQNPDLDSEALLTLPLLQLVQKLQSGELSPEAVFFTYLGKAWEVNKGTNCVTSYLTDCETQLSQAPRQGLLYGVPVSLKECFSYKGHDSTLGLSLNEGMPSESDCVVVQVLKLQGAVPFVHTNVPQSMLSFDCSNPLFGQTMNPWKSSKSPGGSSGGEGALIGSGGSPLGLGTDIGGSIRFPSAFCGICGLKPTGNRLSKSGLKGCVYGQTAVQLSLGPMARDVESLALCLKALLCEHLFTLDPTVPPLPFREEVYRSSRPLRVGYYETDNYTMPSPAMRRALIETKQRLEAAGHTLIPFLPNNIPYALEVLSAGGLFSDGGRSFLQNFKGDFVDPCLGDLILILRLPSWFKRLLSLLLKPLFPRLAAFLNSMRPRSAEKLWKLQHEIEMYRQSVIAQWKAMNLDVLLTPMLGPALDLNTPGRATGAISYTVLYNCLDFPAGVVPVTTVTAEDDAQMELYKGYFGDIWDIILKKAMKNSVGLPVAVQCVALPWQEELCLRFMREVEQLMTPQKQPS
Assay: Assay Method 2: FAAH assay, 3H-anandamide hydrolysis in cell homogenate
Settings: transfected SK-N-MC cell homogenate, 80 nM 3H-AEA, 1 h rt, > = solubility limit or highest concentration tested
pIC50: −log10 of the molar value.
Param threshold (6) applies to pIC50; output fulfilled when value >= threshold, not fulfilled when value < threshold.

Quick check: does "COc1ccccc1C(=O)N1CCC(C(=O)c2ncco2)CC1" have pIC50 greater than or equal to 6?
not fulfilled

Tell me whether pIC50 is at least 6 here: "O=C(c1ncco1)C1CCN(Cc2ccc3c(c2)OC(F)(F)O3)CC1"
fulfilled

Decide: pIC50 of "O=C(c1ncco1)C1CCN(C(=O)CCc2ccccc2)CC1" >= 6?
not fulfilled

Quick check: does "O=C(c1ncco1)C1CCN(Cc2cccnc2)CC1" have pIC50 greater than or equal to 6?
not fulfilled

Does pIC50 meet or surpass 6 for "O=C(c1ncco1)C1CCN(Cc2ccc(Oc3ccccc3)cc2)CC1" ?
fulfilled
